- Test system: TM3
- protocol.summary: Induction of testosterone production in mouse TM3 cells assessed as increase in testosterone level at 20 uM measured after 24 hrs by ELISA relative to control
- Format: functional

{"compound": "COc1cc2c(cc1C(=O)O)CCC1C(C)(C)c3nc(C)ncc3C[C@]21C (mixture of isomers)", "Activity": "121.2%"}
{"compound": "COc1cc2c(cc1C(=O)N1CCc3ccccc31)CCC1C(C)(C)c3nc(C)ncc3C[C@]21C (mixture of isomers)", "Activity": "116.9%"}
{"compound": "COc1ccc2c(c1)[C@@]1(C)Cc3cnc(C)nc3C(C)(C)C1CC2=O (mixture of isomers)", "Activity": "109.9%"}
{"compound": "COc1cccc(NC(=O)c2cc3c(cc2OC)[C@@]2(C)Cc4cnc(C)nc4C(C)(C)C2CC3)c1 (mixture of isomers)", "Activity": "173.6%"}

---

- protocol.summary: Mean residence time in Sprague-Dawley rat at 5 mg/kg, iv by LC/MS analysis
- Format: ADME, organism-based
- assay.context: in vivo

{"compound": "CNC(=O)c1cc2c(cc1OC)[C@@]1(C)Cc3cnc(C)nc3C(C)(C)C1CC2 (mixture of isomers)", "MRT [h]": 9.92}

---

- protocol.summary: Cytotoxicity against mouse TM3 cells assessed as reduction in cell viability measured after 24 hrs by sulforhodamine B assay
- Format: cell-based

{"compound": "COc1cc2c(cc1N)CCC1C(C)(C)c3nc(C)ncc3C[C@]21C.Cl (mixture of isomers)", "CC50 at 24 h": "127 µM"}
{"compound": "COc1ccc2c(c1)[C@@]1(C)Cc3nccnc3C(C)(C)C1CC2 (some centres undefined)", "CC50 at 24 h": "71.3 µM"}
{"compound": "COc1ccc2c(c1)[C@@]1(C)Cc3c[nH]nc3C(C)(C)C1CC2 (some centres undefined)", "CC50 at 24 h": "< 50 µM"}
{"compound": "CNCc1cc2c(cc1OC)[C@@]1(C)Cc3cnc(C)nc3C(C)(C)C1CC2 (mixture of isomers)", "CC50 at 24 h": "124 µM"}
{"compound": "COc1cc2c(cc1C(N)=O)CCC1C(C)(C)c3nc(C)ncc3C[C@]21C (mixture of isomers)", "CC50 at 24 h": "> 200 µM"}
{"compound": "COc1ccc2c(c1)[C@@]1(C)Cc3c(n[nH]c3C(=O)O)C(C)(C)C1CC2 (some centres undefined)", "CC50 at 24 h": "> 200 µM"}
{"compound": "COc1cccc(NC(=O)c2cc3c(cc2OC)[C@@]2(C)Cc4cnc(C)nc4C(C)(C)C2CC3)c1 (mixture of isomers)", "CC50 at 24 h": "< 50 µM"}
{"compound": "COc1ccc2c(c1)[C@@]1(C)Cc3c([nH]c4ccccc34)C(C)(C)C1CC2 (some centres undefined)", "CC50 at 24 h": "< 50 µM"}
{"compound": "COc1cc2c(cc1C(=O)NCc1cccc(Cl)c1)CCC1C(C)(C)c3nc(C)ncc3C[C@]21C (mixture of isomers)", "CC50 at 24 h": "< 50 µM"}

---

- protocol.summary: Cytotoxicity against human L02 cells assessed as reduction in cell viability measured after 24 hrs by sulforhodamine B assay
- Format: cell-based

{"molecule": "CNC(=O)c1cc2c(cc1OC)[C@@]1(C)Cc3cnc(C)nc3C(C)(C)C1CC2 (mixture of isomers)", "CC50 at 24 h": "> 200 µM"}

---

- protocol.summary: Half-life in Sprague-Dawley rat plasma at 5 mg/kg, iv up to 5 hrs by LC/MS analysis
- Type: ADME, organism-based
reported.endpoint: half-life

{"compound": "CNC(=O)c1cc2c(cc1OC)[C@@]1(C)Cc3cnc(C)nc3C(C)(C)C1CC2 (mixture of isomers)", "result": "7.59 h"}

---

- protocol.summary: Volume of distribution in Sprague-Dawley rat plasma at 5 mg/kg, iv up to 5 hrs by LC/MS analysis
- Format: ADME, organism-based
reported.endpoint: Vd (L/kg)

{"molecule": "CNC(=O)c1cc2c(cc1OC)[C@@]1(C)Cc3cnc(C)nc3C(C)(C)C1CC2 (mixture of isomers)", "numeric.result": 103}

---

Each item that follows carries a reported Activity.
- Tested on: TM3
- protocol.summary: Induction of testosterone production in mouse TM3 cells assessed as increase in testosterone level at 20 uM measured after 24 hrs by ELISA relative to control
- Type: functional
reported.endpoint: Activity (%)

{"compound": "Cc1ncc2c(n1)C(C)(C)C1CCc3ccc(O)cc3[C@@]1(C)C2 (mixture of isomers)", "numeric.result": 124.4}
{"compound": "COc1cc2c(cc1C(N)=O)CCC1C(C)(C)c3nc(C)ncc3C[C@]21C (mixture of isomers)", "numeric.result": 169.8}
{"compound": "CCCCNC(=O)c1cc2c(cc1OC)[C@@]1(C)Cc3cnc(C)nc3C(C)(C)C1CC2 (mixture of isomers)", "numeric.result": 166.9}
{"compound": "COc1cc2c(cc1C(=O)NC1CCCC1)CCC1C(C)(C)c3nc(C)ncc3C[C@]21C (mixture of isomers)", "numeric.result": 122.4}
{"compound": "Cc1ncc2c(n1)C(C)(C)C1CCc3ccc(OCc4ccccc4)cc3[C@@]1(C)C2 (mixture of isomers)", "numeric.result": 133}
{"compound": "COc1cc2c(cc1C(=O)NCC(C)C)CCC1C(C)(C)c3nc(C)ncc3C[C@]21C (mixture of isomers)", "numeric.result": 114.7}
{"compound": "CCOC(=O)c1[nH]nc2c1C[C@]1(C)c3cc(OC)ccc3CCC1C2(C)C (some centres undefined)", "numeric.result": 160.9}
{"compound": "COc1ccc2c(c1)[C@@]1(C)Cc3nccnc3C(C)(C)C1CC2 (some centres undefined)", "numeric.result": 134}
{"compound": "CNC(=O)c1cc2c(cc1OC)[C@@]1(C)Cc3cnc(C)nc3C(C)(C)C1CC2 (mixture of isomers)", "numeric.result": 174.6}
{"compound": "C=CCOc1ccc2c(c1)[C@@]1(C)Cc3cnc(C)nc3C(C)(C)C1CC2 (mixture of isomers)", "numeric.result": 142}
{"compound": "Cc1ncc2c(n1)C(C)(C)C1CCc3ccc(OCc4cccc([N+](=O)[O-])c4)cc3[C@@]1(C)C2 (mixture of isomers)", "numeric.result": 122.4}
{"compound": "COc1ccc2c(c1)[C@@]1(C)Cc3cnc(C)nc3C(C)(C)C1CC2 (mixture of isomers)", "numeric.result": 145}
{"compound": "COc1ccc2c(c1)[C@@]1(C)Cc3c[nH]nc3C(C)(C)C1CC2 (some centres undefined)", "numeric.result": 116.6}
{"compound": "COc1cc2c(cc1NC(C)=O)CCC1C(C)(C)c3nc(C)ncc3C[C@]21C (mixture of isomers)", "numeric.result": 157.6}
{"compound": "CNCc1cc2c(cc1OC)[C@@]1(C)Cc3cnc(C)nc3C(C)(C)C1CC2 (mixture of isomers)", "numeric.result": 176.6}
{"compound": "COc1ccc2c(c1)[C@@]1(C)Cc3sc(N)nc3C(C)(C)C1CC2 (some centres undefined)", "numeric.result": 110.9}
{"compound": "C#CCNC(=O)c1cc2c(cc1OC)[C@@]1(C)Cc3cnc(C)nc3C(C)(C)C1CC2 (mixture of isomers)", "numeric.result": 118.1}
{"compound": "COc1cc2c(cc1C(=O)Nc1ccccc1)CCC1C(C)(C)c3nc(C)ncc3C[C@]21C (mixture of isomers)", "numeric.result": 156.8}
{"compound": "CCc1ccc(NC(=O)c2cc3c(cc2OC)[C@@]2(C)Cc4cnc(C)nc4C(C)(C)C2CC3)cc1 (mixture of isomers)", "numeric.result": 167.8}

---

- protocol.summary: Initial plasma concentration in Sprague-Dawley rat plasma at 5 mg/kg, iv by LC/MS analysis
- Assay type: ADME, organism-based

{"molecule": "CNC(=O)c1cc2c(cc1OC)[C@@]1(C)Cc3cnc(C)nc3C(C)(C)C1CC2 (mixture of isomers)", "C0, ng/mL": 279}

---

Each item that follows carries a reported Activity.
- Test system: TM3
- protocol.summary: Induction of testosterone production in mouse TM3 cells assessed as increase in testosterone level at 20 uM measured after 24 hrs by ELISA relative to control
- Format: functional

{"compound": "COc1cc2c(cc1C(=O)Nc1ncco1)CCC1C(C)(C)c3nc(C)ncc3C[C@]21C (mixture of isomers)", "Activity, %": 176.9}
{"compound": "CCNC(=O)c1cc2c(cc1OC)[C@@]1(C)Cc3cnc(C)nc3C(C)(C)C1CC2 (mixture of isomers)", "Activity, %": 141.3}
{"compound": "COc1cc2c(cc1C(=O)Nc1ccc3[nH]ncc3c1)CCC1C(C)(C)c3nc(C)ncc3C[C@]21C (mixture of isomers)", "Activity, %": 181.5}
{"compound": "CCCNC(=O)c1cc2c(cc1OC)[C@@]1(C)Cc3cnc(C)nc3C(C)(C)C1CC2 (mixture of isomers)", "Activity, %": 140.9}
{"compound": "COc1cc2c(cc1C(=O)Nc1nccs1)CCC1C(C)(C)c3nc(C)ncc3C[C@]21C (mixture of isomers)", "Activity, %": 134.1}
{"compound": "COc1cc2c(cc1C(=O)NN1CCCCC1)CCC1C(C)(C)c3nc(C)ncc3C[C@]21C (mixture of isomers)", "Activity, %": 111.5}
{"compound": "COc1cc2c(cc1C(=O)NCc1cccc(Cl)c1)CCC1C(C)(C)c3nc(C)ncc3C[C@]21C (mixture of isomers)", "Activity, %": 164.2}

Data origin, for the record: ChEMBL document CHEMBL4350974
